The measured values listed here are drawn from PubChem BioAssay (NCATS).

assay-comment: qHTS assay to identify small molecule inhibitors of chordoma cells - UCH-2 (AID 1259356)
measurement-context: UCH-2 chordoma viability, CellTiter-Glo ATP luminescence, 48 h; series mostly up to 46.1 µM
Source text: NIH Chemical Genomics Center [NCGC] Chordoma is a rare and slow growing tumor that can occur anywhere along the spine, from the base of the skull to the tailbone. Current treatment options for chordoma is surgery and radiation therapy for those who are not candidates for surgery. But chordomas tend to return in the same location or surrounding areas of the original tumor after surgery and/or radiation. Chemotherapy can slow down the progression of the tumor. […]
Inconclusive results are not listed. Active and inactive are the calls of the source. Calls follow the shape of the dose curve; as a rule, active = well fitted cell-killing curve with a large enough effect; inconclusive = small, poorly fitted or top-dose-only effect; inactive = flat fitted curve, though single readings scatter.
assay-readout: outcome

CC(COc1ccccc1)N(CCCl)Cc1ccccc1 (configuration not stated) ... inactive
CC1COc2c(N3CCN(C)CC3)c(F)cc3c(=O)c(C(=O)O)cn1c23 (configuration not stated) ... inactive
Cn1cnc2c1c(=O)[nH]c(=O)n2C ... inactive
Cn1ccc2cc3c(cc21)CCN3C(=O)Nc1cccnc1 ... inactive
CNCCCC12CCC(c3ccccc31)c1ccccc12 ... inactive

Return reported outcome; argument: CCC1(c2ccccc2)C(=O)NCNC1=O
inactive

Tell me the measured outcome of CC1(CN2CCC(n3c(=O)[nH]c4ccccc43)CC2)OCc2ccccc2-n2cccc21 (configuration not stated) , please.
inactive

----------
target-system: Flap endonuclease 1 (Homo sapiens) (UniProt P39748)
Sequence (P39748 whole entry, looked up): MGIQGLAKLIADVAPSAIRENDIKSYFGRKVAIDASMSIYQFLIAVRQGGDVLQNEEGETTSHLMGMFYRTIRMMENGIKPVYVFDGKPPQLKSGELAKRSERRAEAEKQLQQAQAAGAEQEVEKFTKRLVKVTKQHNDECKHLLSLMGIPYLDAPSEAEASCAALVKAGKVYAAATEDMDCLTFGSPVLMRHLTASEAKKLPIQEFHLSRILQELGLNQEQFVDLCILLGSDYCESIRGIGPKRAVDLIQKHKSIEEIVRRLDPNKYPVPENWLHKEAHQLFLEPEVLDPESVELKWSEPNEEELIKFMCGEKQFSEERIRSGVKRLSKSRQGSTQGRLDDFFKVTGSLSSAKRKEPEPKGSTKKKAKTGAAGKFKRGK
assay-comment: qHTS Validation Assay for the Inhibitors of Human Flap endonuclease 1 (FEN1) (AID 488816)
measurement-context: FEN1 nuclease activity, fluorogenic DNA substrate; series mostly up to 57.1 µM
The source made the active and inactive calls. Calls come from the whole dose curve; as a rule, active = well fitted inhibition curve with a large enough effect; inconclusive = small, poorly fitted or top-dose-only effect; inactive = flat fitted curve, though single readings scatter.
Answer with one of the outcomes given here: yes for active, no for inactive

A selection of reference data follows.
NS(=O)(=O)c1cc2c(cc1Cl)NCNS2(=O)=O ... no
O=C1Cc2cc(CCN3CCN(c4nsc5ccccc45)CC3)c(Cl)cc2N1 ... no
CCC1(C)CC(=O)NC1=O (configuration not stated) ... no
O=C(c1ccc(F)cc1)C1CCN(CCn2c(=O)[nH]c3ccccc3c2=O)CC1 ... no
CC(C)NCC(O)c1ccc(O)c(O)c1 (configuration not stated) ... no
CCc1cccc2c3c([nH]c12)C(CC)(CC(=O)O)OCC3 (configuration not stated) ... no
COc1ccccc1N1CCN(CC(O)COc2cccc3ccccc23)CC1 (configuration not stated) ... no
CCOC(=O)C(C)(C)Oc1ccc(Cl)cc1 ... no

Hey, what did the test say about NCCc1cnc[nH]1 ?
no

Test call for this compound, please: CC(C)(Oc1ccc(C2CC2(Cl)Cl)cc1)C(=O)O (configuration not stated)
no

I'd appreciate the recorded outcome for O=C1c2c(O)ccc(O)c2C(=O)c2c(NCCNCCO)ccc(NCCNCCO)c21 from this test.
yes

Test call, this compound: CN(C)CCCN1c2ccccc2CCc2ccc(Cl)cc21
no

Fill in: this test's call for C[C@](N)(Cc1ccc(O)c(O)c1)C(=O)O is ___
yes

In this assay, the call recorded for OCCN(CCO)c1nc(N2CCCCC2)c2nc(N(CCO)CCO)nc(N3CCCCC3)c2n1 was what?
no

So what was the verdict on COc1ccc2c(c1)c(CC(=O)O)c(C)n2C(=O)c1ccc(Cl)cc1 in this test?
no

Outcome? CC(C)C(=O)Nc1ccc([N+](=O)[O-])c(C(F)(F)F)c1
no
